- tested_on: Bcl-2-like protein 1 (Homo sapiens) (UniProt Q07817)
- Sequence (Q07817 whole entry): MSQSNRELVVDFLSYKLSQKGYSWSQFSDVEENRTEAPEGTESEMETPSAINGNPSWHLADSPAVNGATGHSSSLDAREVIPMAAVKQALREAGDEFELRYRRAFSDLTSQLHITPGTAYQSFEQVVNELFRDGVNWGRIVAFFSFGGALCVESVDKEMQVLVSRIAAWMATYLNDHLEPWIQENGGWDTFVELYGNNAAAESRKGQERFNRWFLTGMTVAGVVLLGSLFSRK
- method_description: Inhibition of Bcl-xL at 200 uM by 1D 1H NMR binding assay
Activity calls are given as the source filed them. The calls are words filed in the database; no cut-off is given here.
Your reply should match one of these outcome classes. active, inactive

{"smiles": "Cc1cc2c(C(=O)NCCc3ccc(Cl)cc3)c(O)c(O)cc2c(O)c1-c1c(C)cc2c(C(=O)NCCc3ccc(Cl)cc3)c(O)c(O)cc2c1O", "tested_on": "Bcl-2-like protein 1 (Homo sapiens) (UniProt Q07817)", "class_label": "active"}
{"smiles": "Cc1cc2c(C(=O)Nc3cccc(C(F)(F)F)c3)c(O)c(O)cc2c(O)c1-c1c(C)cc2c(C(=O)Nc3cccc(C(F)(F)F)c3)c(O)c(O)cc2c1O", "tested_on": "Bcl-2-like protein 1 (Homo sapiens) (UniProt Q07817)", "class_label": "active"}
{"smiles": "Cc1cc2c(C(=O)NCc3cccc(Cl)c3)c(O)c(O)cc2c(O)c1-c1c(C)cc2c(C(=O)NCc3cccc(Cl)c3)c(O)c(O)cc2c1O", "tested_on": "Bcl-2-like protein 1 (Homo sapiens) (UniProt Q07817)", "class_label": "active"}
{"smiles": "Cc1cc2cc(O)c(O)cc2c(O)c1-c1c(C)cc2cc(O)c(O)cc2c1O", "tested_on": "Bcl-2-like protein 1 (Homo sapiens) (UniProt Q07817)", "class_label": "inactive"}
{"smiles": "Cc1cc2c(C(=O)NCc3ccccc3)c(O)c(O)cc2c(O)c1-c1c(C)cc2c(C(=O)NCc3ccccc3)c(O)c(O)cc2c1O", "tested_on": "Bcl-2-like protein 1 (Homo sapiens) (UniProt Q07817)", "class_label": "active"}
{"smiles": "Cc1cc2c(C(=O)Nc3ccc(Oc4ccccc4)cc3)c(O)c(O)cc2c(O)c1-c1c(C)cc2c(C(=O)Nc3ccc(Oc4ccccc4)cc3)c(O)c(O)cc2c1O", "tested_on": "Bcl-2-like protein 1 (Homo sapiens) (UniProt Q07817)", "class_label": "active"}
{"smiles": "Cc1cc2c(C(C)C)c(O)c(O)c(C=O)c2c(O)c1-c1c(C)cc2c(C(C)C)c(O)c(O)c(C=O)c2c1O", "tested_on": "Bcl-2-like protein 1 (Homo sapiens) (UniProt Q07817)", "class_label": "active"}

Here is the next item to consider.
What was the test verdict on `Cc1cc2c(CCc3ccccc3)c(O)c(O)cc2c(O)c1-c1c(C)cc2c(CCc3ccccc3)c(O)c(O)cc2c1O` ?
active

====

- method_description: Cytotoxicity against human H1299 cells assessed as cell viability after 72 hrs by ATP-LITE assay
- Assay type: functional, cell-based
- condition_notes: NCI-H1299, 72 h
property_name: pEC50
One number for each entry, as −log10 of the molar value.

Solved entries:
{"compound": "Cc1cc2c(Cc3ccccc3)c(O)c(O)cc2c(O)c1-c1c(C)cc2c(Cc3ccccc3)c(O)c(O)cc2c1O", "pEC50": 5.89}
{"compound": "Cc1cc2c(C(=O)NCc3ccccc3)c(O)c(O)cc2c(O)c1-c1c(C)cc2c(C(=O)NCc3ccccc3)c(O)c(O)cc2c1O", "pEC50": 5.44}
{"compound": "Cc1cccc(CNC(=O)c2c(O)c(O)cc3c(O)c(-c4c(C)cc5c(C(=O)NCc6cccc(C)c6)c(O)c(O)cc5c4O)c(C)cc23)c1", "pEC50": 5.51}
{"compound": "Cc1cc2c(CC3CCCC3)c(O)c(O)cc2c(O)c1-c1c(C)cc2c(CC3CCCC3)c(O)c(O)cc2c1O", "pEC50": 4.96}
{"compound": "Cc1cc2c(C(=O)Nc3ccccc3)c(O)c(O)cc2c(O)c1-c1c(C)cc2c(C(=O)Nc3ccccc3)c(O)c(O)cc2c1O", "pEC50": 5.10}
{"compound": "Cc1cc2c(C(C)C)c(O)c(O)c(C=O)c2c(O)c1-c1c(C)cc2c(C(C)C)c(O)c(O)c(C=O)c2c1O [GOSSYPOL]", "pEC50": 5.22}

Lab note: each compound below needs its pEC50 filled in.
1. Cc1cc2c(C(=O)NC3CCCC3)c(O)c(O)cc2c(O)c1-c1c(C)cc2c(C(=O)NC3CCCC3)c(O)c(O)cc2c1O
2. Cc1cc2c(C(=O)NCCc3cccc(Cl)c3)c(O)c(O)cc2c(O)c1-c1c(C)cc2c(C(=O)NCCc3cccc(Cl)c3)c(O)c(O)cc2c1O

[5.10, 5.11]

====

- Test system: Mus musculus
- method_description: Toxicity in human Bcl2 expressing B6 transgenic mouse administered as single dose at 72 umol/kg, ip after 24 hrs
- Assay type: organism-based
- condition_notes: in vivo
property_name: Activity

{"compound": "Cc1cc2c(CC3CCCC3)c(O)c(O)cc2c(O)c1-c1c(C)cc2c(CC3CCCC3)c(O)c(O)cc2c1O", "Activity": "Non-toxic"}
{"compound": "Cc1cc2cc(O)c(O)cc2c(O)c1-c1c(C)cc2cc(O)c(O)cc2c1O", "Activity": "Non-toxic"}
{"compound": "Cc1cc2c(CCc3ccccc3)c(O)c(O)cc2c(O)c1-c1c(C)cc2c(CCc3ccccc3)c(O)c(O)cc2c1O", "Activity": "Non-toxic"}
{"compound": "Cc1cc2c(C(C)C)c(O)c(O)cc2c(O)c1-c1c(C)cc2c(C(C)C)c(O)c(O)cc2c1O [APOGOSSYPOL]", "Activity": "Non-toxic"}
{"compound": "Cc1cc2c(C(=O)NCC(C)c3ccccc3)c(O)c(O)cc2c(O)c1-c1c(C)cc2c(C(=O)NCC(C)c3ccccc3)c(O)c(O)cc2c1O (stereo unspecified)", "Activity": "Toxic"}

In the following, a different compound is considered.
Specify reported Activity for the compound shown: `Cc1cc2c(C(=O)NCC3CCCCC3)c(O)c(O)cc2c(O)c1-c1c(C)cc2c(C(=O)NCC3CCCCC3)c(O)c(O)cc2c1O`
Toxic

====

- System: Mus musculus
- method_description: Toxicity in human Bcl2 expressing B6 transgenic mouse administered as single dose at 72 umol/kg, ip after 24 hrs
- Assay type: organism-based
- condition_notes: in vivo

{"compound": "Cc1cc2c(C(=O)NC(C)c3ccc(Cl)cc3)c(O)c(O)cc2c(O)c1-c1c(C)cc2c(C(=O)NC(C)c3ccc(Cl)cc3)c(O)c(O)cc2c1O (stereo not drawn)", "Activity": "Toxic"}
{"compound": "Cc1cc2c(C(=O)NCCc3cccc(Cl)c3)c(O)c(O)cc2c(O)c1-c1c(C)cc2c(C(=O)NCCc3cccc(Cl)c3)c(O)c(O)cc2c1O", "Activity": "Toxic"}
{"compound": "CCc1ccc(CCNC(=O)c2c(O)c(O)cc3c(O)c(-c4c(C)cc5c(C(=O)NCCc6ccc(CC)cc6)c(O)c(O)cc5c4O)c(C)cc23)cc1", "Activity": "Toxic"}

====

Field: remaining at 1 h. Provide a value for each of the molecules that follow.
- method_description: Stability in rat plasma after 1 hr at 37.5 degC
- Format: ADME, cell-free
- condition_notes: read-out: Stability
Numbers only, in %.

Solved entries:
{"molecule": "Cc1cc2c(C(=O)NC(C)c3ccc(Cl)cc3)c(O)c(O)cc2c(O)c1-c1c(C)cc2c(C(=O)NC(C)c3ccc(Cl)cc3)c(O)c(O)cc2c1O (centres undefined)", "unit_string": "%", "observed_result": 94}
{"molecule": "CCc1ccc(CCNC(=O)c2c(O)c(O)cc3c(O)c(-c4c(C)cc5c(C(=O)NCCc6ccc(CC)cc6)c(O)c(O)cc5c4O)c(C)cc23)cc1", "unit_string": "%", "observed_result": 94}
{"molecule": "Cc1cc2c(CC3CCCC3)c(O)c(O)cc2c(O)c1-c1c(C)cc2c(CC3CCCC3)c(O)c(O)cc2c1O", "unit_string": "%", "observed_result": 81}

Specify reported remaining at 1 h for the molecule shown: Cc1cc2c(C(=O)NCC(C)c3ccccc3)c(O)c(O)cc2c(O)c1-c1c(C)cc2c(C(=O)NCC(C)c3ccccc3)c(O)c(O)cc2c1O (centres undefined)
96

====

- method_description: Cytotoxicity against human PC3-ML cells assessed as cell viability after 72 hrs by ATP-LITE assay
- Assay type: functional, cell-based
Field: pEC50. Provide a value for each of the compounds that follow.
Answers are plain numbers, as −log10 of the molar value.

Solved entries:
{"smiles": "Cc1cccc(CNC(=O)c2c(O)c(O)cc3c(O)c(-c4c(C)cc5c(C(=O)NCc6cccc(C)c6)c(O)c(O)cc5c4O)c(C)cc23)c1", "observed_result": 4.99}
{"smiles": "Cc1cc2c(C(=O)NCC3CCCCC3)c(O)c(O)cc2c(O)c1-c1c(C)cc2c(C(=O)NCC3CCCCC3)c(O)c(O)cc2c1O", "observed_result": 5.43}
{"smiles": "Cc1cc2c(C(=O)NCCc3cccc(Cl)c3)c(O)c(O)cc2c(O)c1-c1c(C)cc2c(C(=O)NCCc3cccc(Cl)c3)c(O)c(O)cc2c1O", "observed_result": 5.49}
{"smiles": "Cc1cc2c(C(=O)NC3Cc4ccccc4C3)c(O)c(O)cc2c(O)c1-c1c(C)cc2c(C(=O)NC3Cc4ccccc4C3)c(O)c(O)cc2c1O", "observed_result": 5.52}
{"smiles": "Cc1cc2c(C(=O)Nc3ccc(Oc4ccccc4)cc3)c(O)c(O)cc2c(O)c1-c1c(C)cc2c(C(=O)Nc3ccc(Oc4ccccc4)cc3)c(O)c(O)cc2c1O", "observed_result": 5.07}

In the following, a different compound is considered.
Specify reported pEC50 for the compound shown: `Cc1cc2c(C(=O)NCc3ccccc3)c(O)c(O)cc2c(O)c1-c1c(C)cc2c(C(=O)NCc3ccccc3)c(O)c(O)cc2c1O`
4.86
